Tested on: SEM cells
Test: cell viability relative to DMSO control; higher = less cytotoxic
Conditions: RPMI 5 mM glucose + 10% dialyzed FBS; 48 h; 0.00234 µM
cell viability values, listed per item
Numeric answer only, unit % assumed.

# Structure, Tested target, cell viability [%]
data = [
    ("CCN1\\C=C(\\C(O)=O)C(=O)C2=C1C=C(N3CCNCC3)C(=C2)F", "SEM cells", 124),
]

Form field: reported cell viability of `Nc1ncnc2c1ncn2[C@@H]1O[C@@H](CO)[C@H](O)[C@@H]1O`
105

Name the recorded cell viability for `Cc1c(C)n(Cc2ccc(-c3ccccc3C(=O)O)cc2)c2ccc(C(=O)N[C@@H](C)c3ccc([N+](=O)[O-])cc3)cc12` .
117

// returns reported cell viability for input `CN[C@@H](C)[C@H]1[C@H](O)C[C@@]2(C)[C@@H]3CC[C@H]4C(C)(C)[C@@H](NC)CC[C@@]45C[C@@]35CC[C@]12C`
75.4

====

Test system: SEM cells
Experiment: cell viability relative to DMSO control; higher = less cytotoxic
Details: RPMI 5 mM glucose + 10% dialyzed FBS; 48 h; 0.00234 µM
Measurement label: cell viability (%)
Express it in %; write the number only.

Known results for molecules:
# Molecule, Unit abbrev, cell viability
records = [
    ("CCOC(=O)[C@@H](N)Cc1ccc(-c2cc(O[C@H](c3ccc(Cl)cc3-n3ccc(C)n3)C(F)(F)F)nc(N)n2)cc1.O=C(O)CNC(=O)c1ccccc1", "%", 132),
    ("O=C(O)CCC1CCC(c2cc(F)ccc2F)([S+](=O)([O-])c2ccc(Cl)cc2)CC1 (stereo unspecified)", "%", 105),
]

// query cell viability value for entry `N#CCNC(=O)c1ccc(-c2ccnc(Nc3ccc(N4CCOCC4)cc3)n2)cc1`
107

====

System: NOMO1
Assay: cell viability relative to DMSO control; higher = less cytotoxic
Conditions: HPLM + 10% dialyzed FBS; 48 h; 46.1 µM
Measurement label: cell viability (%)
Report the figure in % without appending any unit label.

Some molecules with known cell viability results, for comparison:
# Molecule, cell viability, %
measured = [
    ("CC1CNc2c(cccc2[S+](=O)([O-])N[C@@H](CCCNC(=N)N)C(=O)N2CC[C@@H](C)C[C@@H]2C(=O)O)C1 (stereo partly specified)", 123),
    ("C[C@](Cc1c[nH]c2ccccc12)(NC(=O)OC1C2CC3CC(C2)CC1C3)C(=O)NC[C@H](NC(=O)CCC(=O)O)c1ccccc1 (stereo partly specified)", 141),
    ("OC[C@H]1O[C@H]([C@H](O)[C@@H]1O)N2\\C=C/C(=O)NC2=O", 98.4),
]

Return reported cell viability; argument: `COC(=O)Nc1cc(Nc2cc(NC3CC3)c3ncc(C#N)n3n2)c(Cl)c(N2CCN(C)CC2)c1`
4.67

Consider the molecule shown here: `NC\1=N\C(=O)N(\C=C1)[C@@H]2O[C@H](CO)[C@@H](O)[C@@H]2O` What is its recorded cell viability?
6.26

Dear colleague, I am looking for the recorded cell viability of the following molecule: `c1ccc(CCCN2CCN(CCOC(c3ccccc3)c3ccccc3)CC2)cc1`
53.9

Would you kindly share the measured cell viability for `COc1cc(F)c(F)c(Nc2ccc(I)cc2F)c1N[S+](=O)([O-])C1(C[C@H](O)CO)CC1` ?
57
